assay: physchem; conditions: buffer, pH 6.8
I'd be grateful if you could share measured solubility for these entries.
Number only, in µM; omit the unit.

Form: molecule = `Cc1ccc(Oc2ccc(-c3nnn(CCN)n3)cc2)cc1` ; solubility = 30

For this molecule ( `N[C@H](CCO)Cn1nnc(-c2ccc(Oc3ncc(Cl)cc3F)cc2)n1` ), measured solubility is 580

Noted for `N[C@@H](CO)Cn1nnc(-c2ccc(Oc3ncc(Cl)cc3F)cc2)n1` : its solubility reads 520

# molecule `N[C@@H](CC(=O)O)Cn1nnc(-c2ccc(Oc3ncc(Cl)cc3F)cc2)n1` ; its solubility = 620

Input `N[C@H](CO)Cc1nc(-c2ccc(Oc3ccc(-c4cc[nH]n4)cn3)cc2)no1` . Output solubility: 870

Data point: `N[C@H](CO)Cn1ccc(-c2ccc(Oc3ncc(-c4cc[nH]n4)cc3F)cc2)n1` ; solubility = 180
